Molecular target: GMP-140 (Homo sapiens, UniProt P16109)
Construct: from tissue; host or cells: human platelets (outdated platelet packs from a blood bank)
Sequence (P16109 42-830): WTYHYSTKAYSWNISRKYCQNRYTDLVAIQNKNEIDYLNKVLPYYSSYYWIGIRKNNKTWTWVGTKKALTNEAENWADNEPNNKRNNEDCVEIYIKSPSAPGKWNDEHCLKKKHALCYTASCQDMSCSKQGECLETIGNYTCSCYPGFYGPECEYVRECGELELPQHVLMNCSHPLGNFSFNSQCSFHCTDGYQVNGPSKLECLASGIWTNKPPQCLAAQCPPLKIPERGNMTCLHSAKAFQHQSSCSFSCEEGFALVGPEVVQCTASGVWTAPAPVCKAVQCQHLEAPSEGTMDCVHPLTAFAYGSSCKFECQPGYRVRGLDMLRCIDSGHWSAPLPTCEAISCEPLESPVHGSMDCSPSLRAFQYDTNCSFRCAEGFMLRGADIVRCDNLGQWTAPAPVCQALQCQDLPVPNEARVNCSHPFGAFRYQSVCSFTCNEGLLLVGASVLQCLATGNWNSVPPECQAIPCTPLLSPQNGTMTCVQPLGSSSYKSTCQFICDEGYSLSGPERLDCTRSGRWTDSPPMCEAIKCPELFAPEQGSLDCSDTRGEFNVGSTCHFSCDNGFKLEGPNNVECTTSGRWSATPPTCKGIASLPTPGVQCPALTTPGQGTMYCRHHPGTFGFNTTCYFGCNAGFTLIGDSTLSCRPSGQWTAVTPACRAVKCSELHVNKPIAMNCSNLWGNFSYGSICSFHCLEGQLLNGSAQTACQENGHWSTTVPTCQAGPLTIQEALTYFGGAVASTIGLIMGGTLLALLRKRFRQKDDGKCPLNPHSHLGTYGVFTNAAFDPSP
Assay: Inhibition of neutrophil binding to GMP-140 coated wells
Format: cell-based
Settings: peptide concentration 1.0 mM; human neutrophils, immobilized GMP-140
No end group written: not given here. *: point of attachment. Fmoc = O=C(OCC1c2ccccc2-c2ccccc21)*
metric_name: Percent inhibition of neutrophil binding to GMP-140 (%)

Below are worked cases with known answers.
substance	target	experimental_value
Arg-Lys-Val-Asn-Asn-Val-Trp-NH2 (RKVNNVW-NH2)	GMP-140 (Homo sapiens, UniProt P16109)	17
FMOC-Asn-Asn-Lys-Thr-Trp-NH2 (Fmoc-NNKTW-NH2; SMILES C[C@@H](O)[C@H](NC(=O)[C@H](CCCCN)NC(=O)[C@H](CC(N)=O)NC(=O)[C@H](CC(N)=O)NC(=O)OCC1c2ccccc2-c2ccccc21)C(=O)N[C@@H](Cc1c[nH]c2ccccc12)C(N)=O)	GMP-140 (Homo sapiens, UniProt P16109)	99
Arg-Lys-Asn-Asn-Lys-Thr-Trp-NH2 (RKNNKTW-NH2)	GMP-140 (Homo sapiens, UniProt P16109)	99
Cys-Arg-Lys-Asn-Asn-Lys-Thr-Trp-Thr-Trp-Val-NH2 (CRKNNKTWTWV-NH2)	GMP-140 (Homo sapiens, UniProt P16109)	105
Arg-Glu-Asn-Asn-Lys-Thr-Trp-Thr-Trp-Val-NH2 (RENNKTWTWV-NH2)	GMP-140 (Homo sapiens, UniProt P16109)	96
Tyr-Lys-Asn-Asn-Lys-Thr-Trp-Thr-Trp-Val-NH2 (YKNNKTWTWV-NH2)	GMP-140 (Homo sapiens, UniProt P16109)	104

a = RKNNKTWT-NH2
b = KWKWNRTNVT-NH2 [reference compound]
input: Select the item whose Percent inhibition of neutrophil binding to GMP-140 value is smaller, choosing between a and b . Give the label of your selection.
output: b

###

Target: GMP-140 (Homo sapiens, UniProt P16109)
Construct: from tissue; host or cells: human platelets (outdated platelet packs from a blood bank)
Sequence (P16109 42-830): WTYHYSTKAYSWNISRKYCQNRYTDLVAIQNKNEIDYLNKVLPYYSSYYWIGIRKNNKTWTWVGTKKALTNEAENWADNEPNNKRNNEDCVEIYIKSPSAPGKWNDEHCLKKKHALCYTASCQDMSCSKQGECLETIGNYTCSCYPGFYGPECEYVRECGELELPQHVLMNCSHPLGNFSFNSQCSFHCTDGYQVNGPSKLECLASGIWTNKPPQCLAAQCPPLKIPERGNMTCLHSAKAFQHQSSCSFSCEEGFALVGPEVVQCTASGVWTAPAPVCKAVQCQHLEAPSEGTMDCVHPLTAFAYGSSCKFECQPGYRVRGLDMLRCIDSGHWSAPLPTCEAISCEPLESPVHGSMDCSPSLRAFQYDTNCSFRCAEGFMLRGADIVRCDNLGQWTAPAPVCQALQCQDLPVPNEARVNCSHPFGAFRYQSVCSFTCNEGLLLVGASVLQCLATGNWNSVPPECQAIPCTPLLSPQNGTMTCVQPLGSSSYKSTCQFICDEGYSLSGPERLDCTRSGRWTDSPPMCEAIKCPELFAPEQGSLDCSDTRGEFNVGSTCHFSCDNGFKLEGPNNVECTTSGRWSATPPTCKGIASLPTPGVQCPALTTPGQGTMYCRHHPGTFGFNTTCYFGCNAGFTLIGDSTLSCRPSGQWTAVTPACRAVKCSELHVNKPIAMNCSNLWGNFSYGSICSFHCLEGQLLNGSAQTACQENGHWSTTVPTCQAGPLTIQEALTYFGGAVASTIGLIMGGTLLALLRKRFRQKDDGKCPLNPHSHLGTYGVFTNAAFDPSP
Assay: Inhibition of neutrophil binding to GMP-140 coated wells
Format: cell-based
Conditions: peptide concentration 0.1 mM; human neutrophils, immobilized GMP-140
No end group written: not given here. *: point of attachment. Fmoc = O=C(OCC1c2ccccc2-c2ccccc21)*
metric_name: Percent inhibition of neutrophil binding to GMP-140 (%)

substance	experimental_value
KWKWNRTNVT-NH2 [reference compound]	0
RKNNKTWT-NH2	26

P = Tyr-Lys-Asn-Asn-Lys-Thr-Trp-Thr-Trp-Val-NH2 (YKNNKTWTWV-NH2)
Q = RKNNKTWTWV-NH2 [RKNNKTWTWV-NH2]
R = Arg-Lys-Asn-Asn-Lys-Thr-Trp-NH2 (RKNNKTW-NH2)
input: # rank_down: sort by Percent inhibition of neutrophil binding to GMP-140, max first Form entry: labels listed in requested order.
output: R, Q, P
(R: 31%, Q: 14%, P: 9%)

I = Arg-Lys-Asn-Asn-Lys-Thr-Trp-Thr-Trp-Glu-NH2 (RKNNKTWTWE-NH2)
II = FMOC-Asn-Asn-Lys-Thr-Trp-NH2 (Fmoc-NNKTW-NH2; SMILES C[C@@H](O)[C@H](NC(=O)[C@H](CCCCN)NC(=O)[C@H](CC(N)=O)NC(=O)[C@H](CC(N)=O)NC(=O)OCC1c2ccccc2-c2ccccc21)C(=O)N[C@@H](Cc1c[nH]c2ccccc12)C(N)=O)
III = Ac-Arg-Lys-Asn-Asn-Lys-Thr-Trp-Thr-Trp-Val-NH2 (Ac-RKNNKTWTWV-NH2)
input: Which order do these items take when sorted by rising Percent inhibition of neutrophil binding to GMP-140? List them. Form entry: labels listed in requested order.
output: I, III, II
